Test system: ocular pressure in rabbit
Method notes: decrease in ocular pressure in rabbit, transient ocular hypertension model (5% glucose infusion), topical instillation
Assay type: in vivo
Design: unit not given beside the values
Measurement context: right eye (drug-treated, 2 drops of 2% solution), 20 minutes
Answer each item with its documented endoocular pressure, 20' OC.

A selection of reference data follows.
COC(=O)CCC(=O)N=c1sc(S(N)(=O)=O)nn1C ... 20.33
NS(=O)(=O)c1nnc(NC(=O)CCC(=O)O)s1 ... 17.17

Hi, could you look up endoocular pressure, 20' OC for each item in my list?
1. NCCCCC(=O)Nc1nnc(S(N)(=O)=O)s1
2. COC(=O)CCC(=O)Nc1nnc(S(N)(=O)=O)s1
3. CCOC(=O)CCC(=O)Nc1nnc(S(N)(=O)=O)s1

Result ::
20.83
19.5
17.33

====

Tested on: ocular pressure in rabbit
Method notes: decrease in ocular pressure in rabbit, transient ocular hypertension model (5% glucose infusion), topical instillation
Type: in vivo
Measurement context: right eye (drug-treated, 2 drops of 2% solution), 40 minutes
Reported property: endoocular pressure, 40' OD
Numbers only.

Would you please look over these solved cases?
NCCCCC(=O)Nc1nnc(S(N)(=O)=O)s1 [RENDE 027] ... 16.83
COC(=O)CCC(=O)Nc1nnc(S(N)(=O)=O)s1 [RENDE 023] ... 16.5
CCCCCOC(=O)CCC(=O)N=c1sc(S(N)(=O)=O)nn1C [RENDE 035] ... 17.83

Hello, I would appreciate it if you could give endoocular pressure, 40' OD for each entry below.
1. NS(=O)(=O)c1nnc(NC(=O)CCC(=O)O)s1 [RENDE 037]
2. COC(=O)CCC(=O)N=c1sc(S(N)(=O)=O)nn1C [RENDE 024]
3. CC(C)COC(=O)CCC(=O)Nc1nnc(S(N)(=O)=O)s1 [RENDE 034]
4. CCCCCOC(=O)CCC(=O)Nc1nnc(S(N)(=O)=O)s1 [RENDE 032]
5. CCOC(=O)CCC(=O)Nc1nnc(S(N)(=O)=O)s1 [RENDE 029]

Result ::
[15.67, 17.33, 16.67, 17.83, 15.67]

====

Give endoocular pressure, 20' OC for every item shown.
Test system: ocular pressure in rabbit
Method notes: decrease in ocular pressure in rabbit, transient ocular hypertension model (5% glucose infusion), topical instillation
Format: in vivo
Set-up: unit not given beside the values
Measurement context: right eye (drug-treated, 2 drops of 2% solution), 20 minutes
Answers are plain numbers.

The following compounds have reported results that may help.
CCCCCOC(=O)CCC(=O)N=c1sc(S(N)(=O)=O)nn1C [RENDE 035] ... 20.67
CCCCCOC(=O)CCC(=O)Nc1nnc(S(N)(=O)=O)s1 [RENDE 032] ... 20.0

Query :: Field request: endoocular pressure, 20' OC | item: CC(C)COC(=O)CCC(=O)Nc1nnc(S(N)(=O)=O)s1 [RENDE 034]
Result :: 19.0

====

Method notes: solubility in buffer pH 7.6
Assay type: physicochemical
Measurement context: aqueous buffer
Give solubility for every item shown.
Give bare numbers, in µg/mL.

Example cases with answers are listed next.
CCCCCOC(=O)CCC(=O)N=c1sc(S(N)(=O)=O)nn1C ... 535
COC(=O)CCC(=O)Nc1nnc(S(N)(=O)=O)s1 ... 740
COC(=O)CCC(=O)N=c1sc(S(N)(=O)=O)nn1C ... 2250

Would you mind listing solubility for each of the following compounds?
1. CCCCCOC(=O)CCC(=O)Nc1nnc(S(N)(=O)=O)s1
2. NS(=O)(=O)c1nnc(NC(=O)CCC(=O)O)s1
3. CCOC(=O)CCC(=O)Nc1nnc(S(N)(=O)=O)s1

Result ::
470
28700
2760

Please state solubility for every compound in the list that follows.
1. CC(C)COC(=O)CCC(=O)Nc1nnc(S(N)(=O)=O)s1
2. NCCCCC(=O)Nc1nnc(S(N)(=O)=O)s1

Result ::
[1240, 208]

====

Task for the reader: assign each of the following compounds its reported IC50.
Assayed system: carbonic anhydrase
Method notes: in vitro inhibition of carbonic anhydrase (enzymic activity), CO2-electrode potentiometric analysis
Measurement context: samples at 10^-7, 3×10^-7, 6×10^-7 and 10^-6 molar; read-out: I50 (molar concentration that gives a 50% reduction of enzymic activity)
One number for each entry, in nM.

NCCCCC(=O)Nc1nnc(S(N)(=O)=O)s1 ... 440

// batch mode: one IC50 value per listed entry
1. CC(C)COC(=O)CCC(=O)Nc1nnc(S(N)(=O)=O)s1
2. CCCCCOC(=O)CCC(=O)Nc1nnc(S(N)(=O)=O)s1
3. COC(=O)CCC(=O)Nc1nnc(S(N)(=O)=O)s1
4. COC(=O)CCC(=O)N=c1sc(S(N)(=O)=O)nn1C
5. CCCCCOC(=O)CCC(=O)N=c1sc(S(N)(=O)=O)nn1C

Result ::
1. 370
2. 390
3. 550
4. 450
5. 307

Value source: patent US5010204A
